Test: qHTS assay to test for compound auto fluorescence at 535 nm (green) in HepG2 cells (AID 720675); note: % is set by controls: 0 for no effect and ±100 for the full control effect
Conditions: green autofluorescence 485/535 nm, 1 h; series mostly up to 91.3 µM
Active and inactive are the calls of the source. Calls come from the whole dose curve; as a rule, active = well fitted curve in the direction sought with a large enough effect in the repeat runs; inconclusive = weak or mixed curves; inactive = flat fitted curve, though single readings scatter.
Value Type: fluorescence, % of fluorescein control

Solved entries:
C=CCOC(=O)CCCCCC | inactive
CC(=O)CCC1=C(C)CCCC1(C)C | inactive
CN(C)CC/C=C1/c2ccccc2COc2ccc(CC(=O)O)cc21 | inactive
NCC1(Cc2noc(=O)[nH]2)CCCCC1 | inactive

Look up fluorescence, % of fluorescein control for this compound: CC(C)OC(=O)CCC(=O)OC(C)C
inactive

Tell me the measured fluorescence, % of fluorescein control of COC(=O)c1cc(Cl)cc(Cl)c1 , please.
inactive

----------
Experiment: qHTS assay to test for compound auto fluorescence at 460 nm (blue) in HEK293 cells (AID 720678); note: % is set by controls: 0 for no effect and ±100 for the full control effect
Details: blue autofluorescence 405/460 nm; series mostly up to 91.3 µM
Active and inactive are the calls of the source. Calls come from the whole dose curve; as a rule, active = well fitted curve in the direction sought with a large enough effect in the repeat runs; inconclusive = weak or mixed curves; inactive = flat fitted curve, though single readings scatter. Positions of bridges follow the written chain, without caps; N, C: chain ends. Non-standard residues stand in square brackets, D forms with d. Residues, ends and D or L forms follow the SMILES beside them. hArg = N=C(N)NCCCC[C@H](N)C(=O)O; Mpa = O=C(O)CCS
Value Type: fluorescence, % of triamterene

Record excerpt, results attached:
CCNC(=O)NCc1cccc(Cl)c1 | inactive
C=C(C)[C@@H]1CC=C(C)CC1 | inactive
OC1OCCOC1O (stereo unspecified) | inactive
CC1(C)[C@H]2CC[C@](C)(C2)[C@H]1O | inactive
N[C@@H](Cc1ccc(O)cc1)C(=O)O | inactive

Record request: fluorescence, % of triamterene value, item O=C1OCCO1
inactive

Which fluorescence, % of triamterene value belongs to Cc1ccccc1C(N)=O ?
inactive

Could you tell me which fluorescence, % of triamterene is on file for CCCc1ccc(O)cc1 ?
inactive

I would be grateful if you could share the reported fluorescence, % of triamterene for N[C@@H](CSCCCO)C(=O)O .
inactive

// fluorescence, % of triamterene lookup, key: C=CCCCCCCCCC(=O)OCCCC
inactive

Recorded fluorescence, % of triamterene for OC[C@@H](O)C(O)[C@@H](O)CO (stereo partly specified) , please?
inactive

Which fluorescence, % of triamterene reading was recorded for the compound CC(=O)OC(C)=O ?
inactive

// fluorescence, % of triamterene lookup, key: CC1CCc2c(N3CCC(O)CC3)c(F)cc3c(=O)c(C(=O)O)cn1c23 (stereo unspecified)
inactive

Recorded fluorescence, % of triamterene for Cc1c(N)cccc1Cl , please?
inactive

What measured fluorescence, % of triamterene goes with Cc1ccc(N)cc1S(=O)(=O)O ?
inactive

Need fluorescence, % of triamterene, item CCCCOCCOC(=O)COc1ccc(Cl)cc1Cl
inactive

Tell me the measured fluorescence, % of triamterene of CC(C)CCOC(=O)c1ccccc1 , please.
inactive

Record request: fluorescence, % of triamterene value, item NC(=O)[C@@H]1CSSCCC(=O)N[C@@H](CCCCN=C(N)N)C(=O)NCC(=O)N[C@@H](CC(=O)O)C(=O)N[C@@H](Cc2c[nH]c3ccccc23)C(=O)N2CCC[C@H]2C(=O)N1 ([Mpa][hArg]GDWPC-NH2; disulfide 1-7)
inactive

----------
Experiment: A CellTox Green Cytotoxicity Assay to monitor cytotoxicity in HEK293 cells - 0 hour (AID 1224869); note: % is set by controls: 0 for no effect and ±100 for the full control effect; nearly all actives have a fitted effect of over 50% in size
Settings: CellTox Green fluorescence; series mostly up to 76.8 µM
Activity calls are given as the source filed them. Calls come from the whole dose curve; as a rule, active = well fitted activation curve with a large enough effect in the repeat runs; inconclusive = weak or mixed curves; inactive = flat fitted curve, though single readings scatter.
Value Type: cytotoxicity

Examples with answers:
C#CCN[C@@H]1CCc2ccccc21 | inactive
CNCCS(=O)(=O)O | inactive
CC(C)=CCC/C(C)=C/COC=O | inactive
CC(=O)O[C@@H]1CC2CCC1(C)C2(C)C (some centres not stated) | inactive
CCCC(=O)Nc1ccc(OCC(O)CNC(C)C)c(C(C)=O)c1 (configuration not stated) | inactive

Find the recorded cytotoxicity belonging to CC/C=C\CCOC(=O)c1ccccc1O and report it.
inactive

What does the data say about its cytotoxicity? Entry: N[C@@H](Cc1ccc(O)cc1)C(=O)O
1.14% [at 6.97 µM] (inactive)

----------
Test: A CellTox Green Cytotoxicity Assay to monitor cytotoxicity in HEK293 cells - 32 hour (AID 1224881); note: % is set by controls: 0 for no effect and ±100 for the full control effect; nearly all actives have a fitted effect of over 40% in size
Details: CellTox Green fluorescence; series mostly up to 76.8 µM
Results filed as inconclusive are left out. Active and inactive are the calls of the source. The call rests on the fitted dose curve; in most records, active means well fitted activation curve with a large enough effect in the repeat runs; inconclusive means weak or mixed curves; inactive means flat fitted curve, though single readings scatter.
Value Type: cytotoxicity increase

Examples from the recorded data:
C=CCCCC | inactive
Cc1c(C(=O)c2c[nH]n(C)c2=O)ccc(S(C)(=O)=O)c1C1=NOCC1 | inactive
CN(C)CCN(C)CCO | inactive
CCCC(=O)OCCC(C)CCC=C(C)C (centres undefined) | inactive
OCC(O)CN1CCN(c2ccccc2)CC1 (centres undefined) | inactive
CCC/C=C(\C=O)CC | inactive
COC(=O)/C=C\C(=O)O | inactive
COS(=O)(=O)O | inactive

Fill in the blank: the reported cytotoxicity increase of CSc1cnccn1 is ____.
inactive

Tell me the measured cytotoxicity increase of CC1(C)CC(OC(=O)CCCCCCCCC(=O)OC2CC(C)(C)NC(C)(C)C2)CC(C)(C)N1 , please.
-5.67% [at 15.8 µM] (inactive)

Give its cytotoxicity increase value. Item: Cc1ncc([N+](=O)[O-])n1CC(C)O (centres undefined)
inactive

For the molecule shown here, CCOc1cccc(N)c1 , give the reported cytotoxicity increase.
inactive

Quick one: cytotoxicity increase of O=C1c2ccccc2C(=O)c2cc(Cl)ccc21 ?
-1.78% [at 6.97 µM] (inactive)

Entry O=S(=O)(O)c1ccc2c(N=Nc3ccc(S(=O)(=O)O)c4ccccc34)c(O)c(S(=O)(=O)O)cc2c1 has what cytotoxicity increase?
8.52% [at 6.97 µM] (inactive)

----------
Assay: qHTS assay to test for compound auto fluorescence at 590 nm (red) in HEK293 cell free culture (AID 720683); note: % is set by controls: 0 for no effect and ±100 for the full control effect
Conditions: cell-free medium autofluorescence, Ex540/Em590 red; series mostly up to 91.3 µM
The source made the active and inactive calls. Calls come from the whole dose curve; as a rule, active = well fitted curve in the direction sought with a large enough effect in the repeat runs; inconclusive = weak or mixed curves; inactive = flat fitted curve, though single readings scatter.
Value Type: fluorescence, % of fluorescent control

Examples with their reported fluorescence, % of fluorescent control follow.
C=CC(=O)CCCCC | inactive
CC1(C)Oc2ccc(C#N)cc2[C@@H](N2CCCC2=O)[C@@H]1O | inactive
CC(=O)O[Si](C)(OC(C)=O)OC(C)=O | inactive
CC(C)C1OCCN1CCOC(=O)NCCCCCCNC(=O)OCCN1CCOC1C(C)C (stereo unspecified) | inactive
Cc1ccc(N)cc1S(=O)(=O)O | inactive

Form field: reported fluorescence, % of fluorescent control of O=C(O)CNC(=O)CNC(=O)CNC(=O)CSC(=O)c1ccccc1
inactive

----------
Experiment: qHTS assay to identify small molecule antagonists of the thyroid receptor (TR) signaling pathway - cell viability counter screen (AID 743064); note: % is set by controls: 0 for no effect and ±100 for the full control effect; nearly all actives have a fitted effect of over 50% in size
Conditions: GH3.TRE-Luc viability, CellTiter-Fluor, 24 h; series mostly up to 70.3 µM
Results filed as inconclusive are left out. Calls of active or inactive are those of the source. Calls come from the whole dose curve; as a rule, active = well fitted cell-killing curve with a large enough effect in the repeat runs; inconclusive = weak or mixed curves, or effect the other way; inactive = no such curve, though single readings can be large or run the other way.
Give one outcome, nothing more. List: TRUE = active, FALSE = inactive

CCO[Si](CC)(OCC)OCC | FALSE
COC(=O)c1cccc(Cl)c1 | FALSE
CCCCCCCCCCCCCBr | FALSE

What did the test return for Cc1c(Cl)cccc1Cl ?
FALSE

Called result for CC(C)OC(=O)CCC(=O)OC(C)C
FALSE

----------
Experiment: A CellTox Green Cytotoxicity Assay to monitor cytotoxicity in HepG2 cells - 8 hour (AID 1224890); note: % is set by controls: 0 for no effect and ±100 for the full control effect; nearly all actives have a fitted effect of over 45% in size
Settings: CellTox Green fluorescence; series mostly up to 76.8 µM
Inconclusive results are not listed. Calls of active or inactive are those of the source. Calls follow the shape of the dose curve; as a rule, active = well fitted activation curve with a large enough effect in the repeat runs; inconclusive = weak or mixed curves; inactive = flat fitted curve, though single readings scatter.
Value Type: cytotoxicity increase

Use the examples below as a reference point.
CCOC(CN1CCN(CC(C)C(=O)c2ccccc2)CC1)c1ccccc1 (stereo not drawn) | -9.59% [at 15.8 µM] (inactive)
CCCCCCCCCCCCCCCCCCOCCO | -4.91% [at 15.8 µM] (inactive)
CC(C)C[C@@H]1[C@H](c2ccccc2)OC(=O)N1CCCN1CCCCCC1 | inactive
CC(N)CCCC(C)(C)O (stereo not drawn) | inactive
CCCCOCC(C)O (stereo not drawn) | inactive

Need cytotoxicity increase of CC(=O)O[Si](C)(OC(C)=O)OC(C)=O , thanks.
inactive

Item CC(C)C1OCCN1CCOC(=O)NCCCCCCNC(=O)OCCN1CCOC1C(C)C (stereo not drawn) has what recorded cytotoxicity increase?
inactive

Name the reported cytotoxicity increase value associated with the compound CC1(C)Cc2cccc(N)c2O1
inactive

Reported cytotoxicity increase for CC(C)=CCC[C@@](C)(O)[C@H]1CC=C(C)CC1 : what is it?
inactive

Record request: cytotoxicity increase value, item COC(=O)c1ccccc1C(=O)O
inactive

----------
Target: Peroxisome proliferator-activated receptor delta (Homo sapiens) (UniProt Q03181)
Sequence (Q03181 whole entry, looked up): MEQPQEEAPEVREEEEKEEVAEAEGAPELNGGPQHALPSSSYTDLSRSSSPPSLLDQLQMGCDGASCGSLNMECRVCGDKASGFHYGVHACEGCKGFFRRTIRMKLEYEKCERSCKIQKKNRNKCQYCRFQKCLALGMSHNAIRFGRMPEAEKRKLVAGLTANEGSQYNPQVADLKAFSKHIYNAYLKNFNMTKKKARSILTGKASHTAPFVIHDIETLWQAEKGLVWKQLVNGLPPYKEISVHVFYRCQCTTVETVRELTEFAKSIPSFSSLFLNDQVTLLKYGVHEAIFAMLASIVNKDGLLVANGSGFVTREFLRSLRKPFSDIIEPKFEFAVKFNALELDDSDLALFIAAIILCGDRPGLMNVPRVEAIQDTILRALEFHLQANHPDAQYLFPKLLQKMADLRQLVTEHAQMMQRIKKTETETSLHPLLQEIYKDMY
Test: qHTS assay to identify small molecule antagonists of the peroxisome proliferator-activated receptor delta (PPARd) signaling pathway (AID 743215);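 note: cells stimulated with agonist L165041 at 300 nM final during compound exposure; % is set by controls: 0 for no effect and ±100 for the full control effect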
Details: HEK293H PPARd-UAS-bla, beta-lactamase FRET ratio, antagonist, 17 h; series mostly up to 62 µM
Results filed as inconclusive are left out. Active and inactive are the calls of the source. Calls come from the whole dose curve; as a rule, active = well fitted inhibition curve with a large enough effect in the signal ratio in the repeat runs (not every such curve was filed as active); inconclusive = weak or mixed curves, or effect the other way; inactive = no such curve, though single readings can be large or run the other way; the % refers to the signal ratio.
Value Type: ratio activity, negative = inhibition

The following compounds have reported results that may help.
Cc1ccccc1C(N)=O | inactive
ONc1ccccc1 | inactive
Cc1ccnc(N)c1 | inactive
CNCCS(=O)(=O)O | inactive
[O-][n+]1cccc(/C(Cl)=N/OC[C@@H](O)CN2CCCCC2)c1 | inactive
COc1nc(N)nc2nc[nH]c12 | inactive
O=C1CCC(=O)N1Cl | inactive
CCOCCOCC | inactive

Which measured ratio activity, negative = inhibition value corresponds to Cc1c(N)cccc1Cl ?
inactive

Field request: ratio activity, negative = inhibition | item: C=CCCCC
inactive

Record request: ratio activity, negative = inhibition value, item CC(N)CCCC(C)(C)O (stereo unspecified)
inactive

Suppose we examine the compound NCCOCCN ; what ratio activity, negative = inhibition value has been reported?
inactive

Name the reported ratio activity, negative = inhibition value associated with the compound O=S(=O)(O)c1ccc2c(N=Nc3ccc(S(=O)(=O)O)c4ccccc34)c(O)c(S(=O)(=O)O)cc2c1
7.03% [at 6.26 µM] (inactive)

Which ratio activity, negative = inhibition value belongs to CCCC(=O)OCCC(C)CCC=C(C)C (stereo unspecified) ?
inactive

Can you look up the measured ratio activity, negative = inhibition of NCc1ccc(S(N)(=O)=O)cc1 for me?
inactive

Any idea what its ratio activity, negative = inhibition is? The compound is CCOc1cccc(N)c1
inactive

The origin of these recorded values is PubChem BioAssay (Tox21).
